Test system: HL-60
Assay: Growth inhibition against HL-60 after 24 hours incubation period
Format: functional
Conditions: Homo sapiens, HL-60, 24 h; read-out: ID50 (the source's name)
pIC50: −log10 of the molar value.
Tag: True if measured pIC50 is not below 4, False if it is.

Past entries and their recorded results:
Q) Given O=c1[nH]c(=O)n([C@H]2C[C@H](O)[C@@H](CO)O2)cc1C(F)F , state whether its pIC50 is at least 4.
A) True

Q) Given CC(=O)OC[C@H]1O[C@@H](n2cc(C(F)(F)F)c(=O)[nH]c2=O)C[C@@H]1OC(C)=O , state whether its pIC50 is at least 4.
A) False

Q) Given O=c1[nH]c(=O)n([C@H]2C[C@H](O)[C@@H](CO)O2)cc1C(F)(F)F , state whether its pIC50 is at least 4.
A) True

Pending compound:
Q) Given O=c1[nH]c(=O)n([C@@H]2O[C@H](CO)[C@@H](O)[C@@H]2F)cc1C(F)(F)F , state whether its pIC50 is at least 4.
A) False
